Reference for the values: patent US11124554B2

experimental_target: α7-GlyR (Homo sapiens)
Construct: expressed in transfected cells; host or cells: HEK cells
Sequence (P36544 with tags, fused parts or gaps): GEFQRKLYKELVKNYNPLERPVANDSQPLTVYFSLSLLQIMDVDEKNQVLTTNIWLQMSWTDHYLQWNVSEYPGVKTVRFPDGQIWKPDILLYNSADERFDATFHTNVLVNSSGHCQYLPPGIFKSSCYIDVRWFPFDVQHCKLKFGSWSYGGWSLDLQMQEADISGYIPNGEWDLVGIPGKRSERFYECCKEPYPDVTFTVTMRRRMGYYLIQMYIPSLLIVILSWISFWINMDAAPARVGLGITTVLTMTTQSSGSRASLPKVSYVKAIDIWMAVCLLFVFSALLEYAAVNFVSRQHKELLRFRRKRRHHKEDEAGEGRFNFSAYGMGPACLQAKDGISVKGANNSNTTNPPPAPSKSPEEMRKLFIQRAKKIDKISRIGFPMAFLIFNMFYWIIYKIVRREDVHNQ
protocol_summary: Agonist potency (EC50), HEK cells expressing chimeric channel
Assay type: cell-based
settings: HEK cells; Table 3; read-out: α7-GlyR EC50
Can you tell me EC50 for the items I'm about to list?
Numeric answer only, unit nM assumed.

**Q:** Return value of EC50 for input O=C(NC1C2CCN(CC2)C1Cc1cccnc1)c1ccc(C(F)(F)F)cc1 (mixture of isomers) [Compound 0436] , no commentary.
**A:** 310

**Q:** Identify measured EC50 corresponding to O=C(Nc1ccccc1)NC1CN2CCC1CC2 (centres unmarked) [Compound 0353]
**A:** 270
